Reference for the values: patent US10858362B2

- MEASURED TARGET: PDE1C (Homo sapiens (Human))
- Sequence (Q14123 whole entry): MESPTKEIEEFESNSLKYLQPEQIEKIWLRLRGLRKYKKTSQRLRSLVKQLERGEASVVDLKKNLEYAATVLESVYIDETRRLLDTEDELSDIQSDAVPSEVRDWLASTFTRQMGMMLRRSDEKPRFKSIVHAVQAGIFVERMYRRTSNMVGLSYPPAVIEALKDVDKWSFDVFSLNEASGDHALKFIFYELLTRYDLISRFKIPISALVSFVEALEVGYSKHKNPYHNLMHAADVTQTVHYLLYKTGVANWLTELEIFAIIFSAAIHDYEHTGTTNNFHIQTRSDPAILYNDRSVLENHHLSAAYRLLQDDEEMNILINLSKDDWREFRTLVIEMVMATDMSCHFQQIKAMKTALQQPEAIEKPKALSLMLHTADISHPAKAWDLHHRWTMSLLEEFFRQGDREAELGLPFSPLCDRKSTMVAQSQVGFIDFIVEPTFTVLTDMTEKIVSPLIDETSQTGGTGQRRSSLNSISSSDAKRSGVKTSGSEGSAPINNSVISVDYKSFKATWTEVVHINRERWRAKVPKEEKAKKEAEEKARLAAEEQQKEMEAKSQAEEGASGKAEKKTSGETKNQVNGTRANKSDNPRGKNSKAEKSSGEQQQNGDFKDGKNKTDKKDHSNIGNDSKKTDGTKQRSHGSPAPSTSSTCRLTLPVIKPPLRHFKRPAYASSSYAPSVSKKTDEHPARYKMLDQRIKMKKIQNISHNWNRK
ENDPOINT LABEL: pIC50
Numbers only, as −log10 of the molar value.

# count of solved cases: 6
# COMPOUND, MEASURED TARGET, pIC50
records = [
    ("O=c1c2cnc(C3CCOCC3)n2cc(Cc2ccccc2)n1Cc1cccc(F)c1", "PDE1C (Homo sapiens (Human))", 7.96),
    ("COc1ccc(Cn2c(C)cn3c(C(C)C)ncc3c2=O)cc1", "PDE1C (Homo sapiens (Human))", 7.70),
    ("Cc1cn2c([C@H]3C[C@@H]3C)ncc2c(=O)n1Cc1cccc(F)c1 (single isomer, unassigned; isomer 3) [35, isomer 3]", "PDE1C (Homo sapiens (Human))", 8.10),
    ("Cc1cn2c(C3CCOCC3)ncc2c(=O)n1Cc1cccc(Cl)c1", "PDE1C (Homo sapiens (Human))", 8.10),
    ("COc1ccc(Cn2c(C)cn3c([C@@H](C)c4ccccc4)ncc3c2=O)cc1", "PDE1C (Homo sapiens (Human))", 6.27),
    ("Cc1cn2c([C@@H]3C[C@@H]3C)ncc2c(=O)n1Cc1cccc(F)c1 (single isomer, unassigned; isomer 1) [35, isomer 1]", "PDE1C (Homo sapiens (Human))", 7.72),
]

Report pIC50 for every entry below.
1. O=c1c2cnc(C3CC3)n2ccn1Cc1cccc(F)c1
2. CCc1cn2c(C3CCOCC3)ncc2c(=O)n1Cc1ccc(OC)cc1
3. Cc1cn2c([C@@H]3CCOC3)ncc2c(=O)n1Cc1cccc(F)c1 (single isomer, unassigned; isomer 1) [31, isomer 1]

Found:
6.54
7.80
7.57

###

- MEASURED TARGET: PDE1B (Homo sapiens (Human))
- Sequence (Q01064 whole entry): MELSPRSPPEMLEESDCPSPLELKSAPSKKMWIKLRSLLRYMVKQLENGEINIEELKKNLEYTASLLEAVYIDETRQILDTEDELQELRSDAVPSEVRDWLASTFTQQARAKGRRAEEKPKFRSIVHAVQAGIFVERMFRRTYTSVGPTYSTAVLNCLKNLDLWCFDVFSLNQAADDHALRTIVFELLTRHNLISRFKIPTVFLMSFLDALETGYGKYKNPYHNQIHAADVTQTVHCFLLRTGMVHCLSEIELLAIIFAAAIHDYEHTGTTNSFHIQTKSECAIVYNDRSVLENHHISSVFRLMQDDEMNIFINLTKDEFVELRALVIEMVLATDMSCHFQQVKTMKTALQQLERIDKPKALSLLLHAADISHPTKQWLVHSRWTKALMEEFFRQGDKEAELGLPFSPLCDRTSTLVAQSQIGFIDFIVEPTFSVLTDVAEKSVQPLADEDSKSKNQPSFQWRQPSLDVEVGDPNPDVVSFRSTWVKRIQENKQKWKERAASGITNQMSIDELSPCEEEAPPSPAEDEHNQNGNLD
ENDPOINT LABEL: pIC50
Answers are plain numbers, as −log10 of the molar value.

# count of solved cases: 3
# MOLECULE, pIC50
records = [
    ("Cc1cn2c(C3(C#N)CCOCC3)ncc2c(=O)n1Cc1cccc(F)c1 [Example 27]", 6.16),
    ("Cc1cn2c([C@H]3CCCOC3)ncc2c(=O)n1Cc1cccc(F)c1 (single isomer, unassigned; isomer 2) [100, isomer 2]", 7.03),
    ("Cc1cn2c(C3CCOCC3)ncc2c(=O)n1CCC(C)C [Example 62]", 6.25),
]

Report pIC50 for every entry below.
1. Cc1cn2c([C@@H]3CCOC3)ncc2c(=O)n1Cc1cccc(F)c1 (single isomer, unassigned; isomer 1) [31, isomer 1]
2. COc1ccc(Cn2c(C)cn3c(C(C)C)ncc3c2=O)cc1 [Example 77]

Found:
6.97
8.15

Report pIC50 for every entry below.
1. Cc1cc(Cn2c(C)cn3c(C4CCOCC4)ncc3c2=O)on1 [Example 83]
2. COc1ccc(Cn2c(C)cn3c([C@@H]4CCO[C@H]4C)ncc3c2=O)cc1 (single isomer, unassigned; isomer 3) [55, isomer 3]
3. COCC(C)(C)c1ncc2c(=O)n(Cc3ccc(OC)cc3)c(C)cn12 [Example 76]
4. Cc1cn2c([C@]3(C)CCOC3)ncc2c(=O)n1Cc1cccc(F)c1 (single isomer, unassigned; isomer 1) [32, isomer 1]
5. Cc1cn2c([C@H]3C[C@H]3C)ncc2c(=O)n1Cc1cccc(F)c1 (single isomer, unassigned; isomer 4) [35, isomer 4]

Found:
1. 5.64
2. 8.52
3. 7.36
4. 6.91
5. 6.44

Report pIC50 for every entry below.
1. Cc1cn2c([C@@H]3CCCOC3)ncc2c(=O)n1Cc1cccc(F)c1 (single isomer, unassigned; isomer 1) [100, isomer 1]
2. Cc1cccc(Cn2c(C)cn3c(C4CCOCC4)ncc3c2=O)c1 [Example 25]
3. COc1ccc(Cn2c(C)cn3c(N4CCOCC4)ncc3c2=O)cc1 [Example 93]

Found:
6.65
7.24
7.28

Report pIC50 for every entry below.
1. Cc1cn2c([C@@H]3C[C@@H]3C)ncc2c(=O)n1Cc1cccc(F)c1 (single isomer, unassigned; isomer 1) [35, isomer 1]
2. Cc1cn2c(C3CCOCC3)ncc2c(=O)n1Cc1ccc(O)cc1 [Example 53]
3. CCCc1ncc2c(=O)n(CC3CCCCC3)c(C)cn12 [Example 85]

Found:
7.12
7.46
7.49
